Molecular target: NPM-ALK-BaF3 (Homo sapiens, UniProt Q9UM73)
Construct: NPM (nuclear phosphoprotein / nucleophosmin, NPM1, P06748) fusion partner; expressed in transfected cells; host or cells: BaF3; the other entry of the earlier key: NPM1 (P06748, Nucleophosmin)
Sequence (Q9UM73 with tags, fused parts or gaps): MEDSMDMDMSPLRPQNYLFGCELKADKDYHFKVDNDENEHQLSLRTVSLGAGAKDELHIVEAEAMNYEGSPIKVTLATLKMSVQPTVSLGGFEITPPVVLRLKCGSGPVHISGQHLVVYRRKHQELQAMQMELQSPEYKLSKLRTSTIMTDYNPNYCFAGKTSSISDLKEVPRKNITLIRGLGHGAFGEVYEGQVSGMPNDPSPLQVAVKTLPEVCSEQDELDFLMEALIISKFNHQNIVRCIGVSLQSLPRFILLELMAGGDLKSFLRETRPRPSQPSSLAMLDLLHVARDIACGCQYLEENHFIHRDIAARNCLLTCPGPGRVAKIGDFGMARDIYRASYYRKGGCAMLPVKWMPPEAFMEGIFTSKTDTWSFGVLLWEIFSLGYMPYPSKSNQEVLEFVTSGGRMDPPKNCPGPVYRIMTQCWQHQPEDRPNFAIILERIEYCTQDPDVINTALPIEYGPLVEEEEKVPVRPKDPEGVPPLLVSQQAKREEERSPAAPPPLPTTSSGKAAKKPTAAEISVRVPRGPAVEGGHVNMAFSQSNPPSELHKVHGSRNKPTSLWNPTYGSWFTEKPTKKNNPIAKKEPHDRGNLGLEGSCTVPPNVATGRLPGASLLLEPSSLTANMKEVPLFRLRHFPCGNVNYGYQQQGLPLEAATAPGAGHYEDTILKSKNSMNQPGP
Assay: Growth inhibition of BaF3 cells stably transfected with kinase NPM-ALK (MTS)
Format: cell-based
Conditions: compound concentration 3.3 μM, read-out: cell growth inhibition rate, NPM-ALK
Quantity Measured: inhibition at 3.3 µM (%)
Give bare numbers, in %.

• COc1cc(C(=O)N2CCC(N3CCN(C)CC3)CC2)ccc1Nc1nc(Nc2ccccc2S(=O)(=O)C(C)C)c2sccc2n1 [IB-22] = 87.3
• CC(C)S(=O)(=O)c1ccccc1Nc1nc(Nc2ccc(S(=O)(=O)N3CCC(O)CC3)cc2)nc2ccsc12 [IB-11] = 60.9
• CC(C)S(=O)(=O)c1ccccc1Nc1nc(Nc2ccc(N3CCN(C(=O)OC(C)(C)C)CC3)cc2)nc2ccsc12 [IB-25] = 61.4
• COc1cc2c(cc1Nc1nc(Nc3cccc(NS(C)(=O)=O)c3)c3sccc3n1)N(C(=O)CN(C)C)CC2 [IG-1] = 22.2
• COC(=O)c1ccccc1Nc1nc(Nc2ccc(N3CCC(N4CCCC4)CC3)cc2OC)nc2ccsc12 [IE-5] = 87.6
• CNC(=O)c1ccccc1Nc1nc(Nc2ccc(N3CCC(O)CC3)cc2)nc2ccsc12 [II-5] = 31.6
• COC(=O)c1ccccc1Nc1nc(Nc2ccc(N3CCC(O)CC3)cc2)nc2ccsc12 [IE-2] = 50.5

For COc1cc2c(cc1Nc1nc(Nc3ccccc3NS(C)(=O)=O)c3sccc3n1)N(C(=O)CN(C)C)CC2 [IH-1] on NPM-ALK-BaF3 (Homo sapiens, UniProt Q9UM73), measured inhibition at 3.3 µM was 12.7
